Biological target: T1, CD133 (prominin-1) (UniProt O43490 O43490:20-865)
T1 sequence: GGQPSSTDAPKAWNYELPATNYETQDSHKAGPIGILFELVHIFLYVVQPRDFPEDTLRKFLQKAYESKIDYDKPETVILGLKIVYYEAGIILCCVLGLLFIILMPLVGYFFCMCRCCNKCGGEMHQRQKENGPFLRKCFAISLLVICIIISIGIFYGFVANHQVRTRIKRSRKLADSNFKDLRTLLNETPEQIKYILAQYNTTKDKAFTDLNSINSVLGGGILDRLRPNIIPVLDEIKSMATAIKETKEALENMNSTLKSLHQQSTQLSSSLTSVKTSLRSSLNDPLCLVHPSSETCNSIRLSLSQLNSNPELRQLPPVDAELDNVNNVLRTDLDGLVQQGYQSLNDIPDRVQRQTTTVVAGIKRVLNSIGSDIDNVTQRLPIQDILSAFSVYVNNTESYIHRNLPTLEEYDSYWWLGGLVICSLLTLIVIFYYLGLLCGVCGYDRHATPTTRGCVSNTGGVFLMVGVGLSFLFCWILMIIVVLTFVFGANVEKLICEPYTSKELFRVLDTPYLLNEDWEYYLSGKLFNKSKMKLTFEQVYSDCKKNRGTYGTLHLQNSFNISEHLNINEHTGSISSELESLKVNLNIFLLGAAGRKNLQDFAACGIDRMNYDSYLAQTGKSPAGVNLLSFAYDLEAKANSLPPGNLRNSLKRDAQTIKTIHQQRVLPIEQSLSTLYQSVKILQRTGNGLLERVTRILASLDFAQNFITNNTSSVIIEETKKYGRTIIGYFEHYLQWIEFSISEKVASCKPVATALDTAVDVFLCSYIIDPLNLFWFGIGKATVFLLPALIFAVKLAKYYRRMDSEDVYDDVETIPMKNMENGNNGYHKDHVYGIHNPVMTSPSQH
Experiment: flow; HT29 cells, 50 mM NaCl, 2.5 mM MgCl2, on ice 1 h; CD133-negative HEK293T gave KD >1000 nM
Conditions: tags: native CD133 on HT-29 colorectal cancer cells (ATCC); label: Cy5; hairpin with 10-bp DNA stem
OUTCOME MEASURE: Kd

Field Kd (entry CGCGCGCCGCACGUAUACUAUGCGGCGCGCG (mixed, DNA stem with 5-methyl-dC; 2'-F C and U in RNA loop; 3' inverted dT; doxorubicin intercalated in stem) [CD133 aptamer-Dox conjugate] ) reads 23.9 nM
